Here, each record is paired with measured TGI data.
Tested on: ACHN renal
protocol: NCI tumour cell line growth inhibition, 48 h

molecule	TGI
Cc1cccc(Nc2cc(Cl)nc(SCC(=O)O)n2)c1C	> 100 µM
C1CC2=C(C1)C1=S(S2)SC2=C1CCC2	> 100 µM
Cc1cn2c(/C=N/N=C(N)N)c(-c3ccncc3)nc2s1	32.5 µM
CCC(=O)Nc1ccc(NCC(=O)Nc2ccc(OC)cc2)cc1	> 100 µM
N#Cc1c(-c2ccc([N+](=O)[O-])cc2)cc(-c2ccc(Nc3ccnc4cc(Cl)ccc34)cc2)nc1N	> 72.6 µM
CCOc1cc(-c2nc3cc(F)ccc3s2)ccc1O	29.9 µM
COC(=O)CCC(=O)N1CC1C (stereo not drawn)	> 100 µM
C=Cc1c(C)c2cc3[nH]c(cc4nc(cc5nc(cc1[nH]2)C(C)=C5CCC(=O)N(CC)CC)C(CCC(=O)N(CC)CC)=C4C)c(C)c3C=C	> 100 µM
Cc1ccc(C(=O)N/N=C2/C(=O)c3c4ccccc4cc4cccc2c34)cc1	39.3 µM
C=CCN(CCN(CC=C)S(=O)(=O)c1ccc(C)cc1)S(=O)(=O)c1ccc(C)cc1	> 100 µM
COc1cc2nc(-c3cccc4cccnc34)nc(NC3CCN(Cc4ccccc4)CC3)c2cc1OC	2.08 µM
COc1ccc2c(c1)[n+](=O)c(C(=O)CC(=O)C(=O)Nc1cccc(C)c1C)c(C)n2[O-]	> 100 µM
COc1ccc(/C(Cl)=C(\C=O)c2ccc(Cl)cc2)cc1OC	13.1 µM
CCOc1ccc(C(C)=O)cc1NC(=O)c1cccc(-c2nnn(CC)n2)c1	70.3 µM
COc1cccc(NC(=O)c2sc3nc4c(cc3c2N)C(O)CCC4)c1 (stereo not drawn)	> 100 µM
CC(=O)NC1C(OCc2ccccc2)OC(CO)C(O)C1OCC(=O)N[C@@H](C)C(=O)N[C@H](CCC(=O)NCCNc1ccc([N+](=O)[O-])c2[nH]c3ccccc3c(=O)c12)C(N)=O (stereo partly drawn)	61.4 µM
CC[n+]1c(/C=C/c2ccc(N(CCCl)CCCl)cc2)ccc2cc(I)ccc21	9.37 µM
NCCOc1ncccc1/C=C1\c2ccccc2-c2ccc([N+](=O)[O-])cc21	0.119 µM
COc1ccc(-c2nc(N)c(C#N)c3c2CCOc2c-3ccc3ccccc23)cc1	22.6 µM
O=C1NC(=Nc2ccccc2Cl)N/C1=C\c1ccc(Cl)cc1Cl	> 100 µM
C=CCn1c(-c2ccc(Cl)cc2)csc1=Nc1ccccc1OC	> 100 µM
NC(N)=N/N=C/c1c(-c2cc([N+](=O)[O-])c(Cl)cc2Cl)nc2n1CCS2	> 100 µM
Cc1noc(C)c1-c1cnc2c(-c3ccc(C(=O)O)cc3)cn([C@@H](C)c3ccccn3)c2c1	> 100 µM
COC(=O)CC(C(C(C)=O)C(=O)OCc1ccccc1)N1C(=O)OC(c2ccccc2)C1c1ccccc1 (stereo not drawn)	> 100 µM
Cc1cc2nnc(C(N)=O)c(N)c2cc1C	> 100 µM
Cc1cc(NS(=O)(=O)c2ccc(Nc3c4ccccc4nc4c(C(=O)NCCO)cccc34)cc2)no1	> 100 µM
C=C(CO)CC(/C=C(\C)CC/C=C(\C)CCl)OC(C)=O (stereo not drawn)	> 100 µM
Oc1c(O)c(Cl)c(Cl)c(Cl)c1Cl	35.5 µM
